biological target: human GM-CSF (human, UniProt P04141 18-144); assay: cell-based or functional assay
Sequence (P04141 18-144): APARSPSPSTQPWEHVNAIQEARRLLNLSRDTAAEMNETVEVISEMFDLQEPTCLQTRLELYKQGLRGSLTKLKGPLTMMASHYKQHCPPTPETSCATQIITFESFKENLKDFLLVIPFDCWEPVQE
measuredMetric: IC50 (pM) in TF-1 proliferation assay, human GM-CSF 0.25 ng/ml

INSERT INTO assay_data (binder, reportedresult) VALUES
  ('MOR04290 Fab (Fab, V domains shown, Fab with FLAG and 6xHis tags) VH: QVQLVESGGGLVQPGGSLRLSCAASGFTFSSYWMNWVRQAPGKGLEWVSGIESKWAGGATYYAAGVKGRFTISRDNSKNTLYLQMNSLRAEDTAVYYCARGFGTDFWGQGTLVTVSS VL: DIELTQPPSVSVAPGQTARISCSGDSIGKKYAYWYQQKPGQAPVLVIYKKRPSGIPERFSGSNSGNTATLTISGTQAEDEADYYCSSWDSTGLVFGGGTKLTVLG', 696);
